system: HL-60(TB) leukemia; experiment: NCI-60 one-dose screen, 48 h; settings: 10 µM unless noted
This is part of a sample that, as a whole, favours compounds with a hit. Of some 83,000 tested, about 20% had one in any assay. Calls of active or inactive are those of the source. Rule for the calls: active = growth percent below 10; inactive = the rest.
One label from this list, please: active, inactive

compound=COc1cccc(-c2nc3occn3c2-c2ccnc(NCCCNS(=O)(=O)c3ccc(C(F)(F)F)cc3)n2)c1 studysystem="HL-60(TB) leukemia" labelvalue=inactive
compound=O=C(Nc1cc(Br)ccn1)c1cc2cc(Nc3nc(-c4ccccc4)nc4ccccc34)ccc2oc1=O studysystem="HL-60(TB) leukemia" labelvalue=inactive
compound=O=C(CCl)Oc1ccc(-c2ccccc2)c(Br)c1 studysystem="HL-60(TB) leukemia" labelvalue=inactive
compound=Cc1ccc(-c2nc(SCc3nc4cc(Cl)c(Cl)cc4[nH]3)[nH]c(=O)c2C#N)cc1 studysystem="HL-60(TB) leukemia" labelvalue=inactive
compound=Cc1cc(-c2nnc(/C=C/c3ccc4c(c3)OCO4)o2)n[nH]1 studysystem="HL-60(TB) leukemia" labelvalue=inactive

Enquiry: Write down the call the test reported for this compound. Item: Nc1nc(C(=O)N/N=C/c2ccc(F)cc2)nn1-c1ccc(S(N)(=O)=O)cc1
Return: inactive

Enquiry: What outcome does the record of this test show for O=C(/C=C/C12c3ccccc3C(c3ccccc31)C1C(=O)NC(=O)C12)c1ccc(I)cc1 (centres undefined) ?
Return: active

Enquiry: // return assay outcome for COc1ccc(-c2cc(C(=O)N3N=C(c4ccc(N)cc4)CC3c3ccccc3)c3ccccc3n2)cc1 (centres undefined)
Return: active

Enquiry: Please share the test call associated with N#CCCN(CCCN1CCOCC1)CN1C(=O)c2ccccc2C1=O .
Return: inactive

* * *

system: HCT-116 colon; assay: NCI-60 one-dose screen, 48 h (100 = growth as untreated, 0 = no growth, -100 = all killed); details: 10 µM unless noted
This is part of a sample that, as a whole, favours compounds with a hit. Of some 83,000 tested, about 20% had one in any assay. Calls of active or inactive are those of the source. Rule for the calls: active = growth percent below 10; inactive = the rest.
This section presents compounds with their documented growth values.

// worked examples, growth included
compound=CC[C@]12C=CCN3CC[C@@]4(c5ccc(OC)cc5N(C)[C@H]4[C@@](O)(C(=O)OC)[C@@H]1OC(=O)CCCN1CCN(CCCC(=O)O[C@@H]4[C@]5(CC)C=CCN6CC[C@@]7(c8ccc(OC)cc8N(C)[C@H]7[C@@]4(O)C(=O)OC)[C@@H]65)CC1)[C@@H]32 observedvalue="-84% (active)"
compound=CC[C@H](C)[C@H](NC(=O)Nc1ccccc1)C(=O)N(C)[C@H](C[C@@H](OC(C)=O)c1nc(C(=O)N[C@@H](Cc2ccccc2)C[C@H](C)C(=O)OC)cs1)C(C)C observedvalue="6.85% (active)"
compound=NC(=O)C(Cl)Cl observedvalue="107% (inactive)"
compound=COc1cc(NCCCCCN=C(N)N)c2ncccc2c1 observedvalue="6.08% (active)"
compound=CC(=O)N(C)C1=Nc2ccc(Cl)cc2C(c2ccccc2)=[N+]([O-])C1 observedvalue="99.3% (inactive)"
compound=C[CH2][Pb]([CH2]C)([CH2]C)[O]C(=O)COC observedvalue="-29.7% (active)"
compound=CC(C)[C@]12O[C@H]1[C@@H]1O[C@]13[C@]1(O[C@H]1C[C@H]1C4=C(CC[C@@]13C)C(=O)OC4)[C@@H]2OC(=O)OC(C)(C)C observedvalue="4.76% (active)"
compound="OC1CCCCC1N1CCC(c2ccccc2)CC1 (stereo not given)" observedvalue="94.5% (inactive)"
compound=C[C@]12C[C@H](O)[C@H]3[C@@H](CCC4=CC(=O)CC[C@@]43C)[C@@H]1CC[C@@H]2O observedvalue="101% (inactive)"
compound=c1ccc2nc(OCCN3CC3)ccc2c1 observedvalue="25% (inactive)"

Enquiry: Provide growth value for the following compound: CC1(C)N=C(N)N=C(N)N1c1ccc(CCCCc2ccc(S(=O)(=O)F)cc2)cc1
Return: 12.6% (inactive)

Enquiry: Look up growth of COc1cc(C2CC(=O)Nc3nc(N)[se]c32)c(OC)c2c1OCO2 (stereo not given) and report it.
Return: 65.7% (inactive)

Enquiry: Return reported growth. Input compound: O=C1NC(=O)C(Cc2ccccc2)(Cc2ccccc2)C(=O)N1
Return: 107% (inactive)

Enquiry: Give me measured growth, please, for this compound: CCOC(=O)Nc1cc(Cl)c([N+](=O)[O-])c(NC(=O)OCC)n1
Return: 53.5% (inactive)

Enquiry: Quote growth reported for O=C(/C=C/c1ccccc1)N[C@@H](CO)Cc1cnc[nH]1 please.
Return: 109% (inactive)

Enquiry: Let me know recorded growth for O=S(=O)(F)c1ncnc2nc[nH]c12 , thanks.
Return: 100% (inactive)

Enquiry: Given the compound C=CC(O)CN1CC1CC (stereo not given) , write its reported growth.
Return: 104% (inactive)

* * *

system: HL-60(TB) leukemia; assay: NCI-60 one-dose screen, 48 h; conditions: 10 µM unless noted
The panel holds about 83,000 compounds, 20% with a hit somewhere; the sample as a whole holds those more often. Activity calls are given as the source filed them. The calls were made as follows: active = growth percent below 10; inactive = the rest.
Reply using exactly one outcome from active, inactive

Enquiry: What is the recorded call for this compound in the test? NC(=S)N/N=C/c1ccc(Cl)cc1
Return: inactive

Enquiry: Recorded test call requested for CCC1CCc2nc3sc(C(=O)Nc4ccccc4C)c(N)c3cc2C1 (stereo not given)
Return: active

Enquiry: GET /call?item= C#CCOC(=O)C(N)CSSCC(N)C(=O)O (stereo not given) returns the recorded outcome of this test.
Return: inactive

Enquiry: Called result for S=C(SSC(=S)N1CCOCC1)N1CCOCC1
Return: inactive

Enquiry: What was the test verdict on C=C1C[C@@]2(C)C(CC[C@]3(C)C2CC=C2C4CC(C)(C)C[C@@H](OC(=O)/C(C)=C\C)[C@]4(C(=O)O)CC[C@]23C)C(C)(C)C1=O (stereo not given in full) ?
Return: active

* * *

system: EKVX NSCLC; assay: NCI-60 one-dose screen, 48 h (100 = growth as untreated, 0 = no growth, -100 = all killed); conditions: 10 µM unless noted
This is part of a sample that, as a whole, favours compounds with a hit. Of some 83,000 tested, about 20% had one in any assay.
// reported growth for each item listed
Write down the numeric answer in % and omit the unit.

compound="CCCCCCCC(=O)OCC/C=C/C1OC1C1OC(=O)/C=C\\C=C\\c2nc(oc2C)/C=C(/C)CCC2OC2C1OC(=O)NC(C)=O (stereo not given)" studysystem="EKVX NSCLC" unitinfo=% observedvalue=-5.8
compound=O=[N+]([O-])c1cc([N+](=O)[O-])c(Cl)c(Cl)c1Cl studysystem="EKVX NSCLC" unitinfo=% observedvalue=67.4

Enquiry: Given Cc1cc(NC(=O)CCc2ccc(N3C(N)=NC(N)=NC3(C)C)cc2)ccc1S(=O)(=O)F , respond with its growth.
Return: 58.8

Enquiry: Return growth (reported value) for this compound: COc1cc(C2CC(=O)Nc3nc(N)[se]c32)c(OC)c2c1OCO2 (stereo not given)
Return: 94.4

Enquiry: // fetch growth given entry [O]=[Sn]([CH]1CCCCC1)[CH]1CCCCC1
Return: -24.3

Enquiry: Provide measured growth value, entry: O=C(CCCN1CCC2(CC1)C(=O)NCN2c1ccc(F)cc1)c1ccc(F)cc1
Return: 135

Enquiry: Determine its reported growth: N#Cc1ncc(/N=C/c2ccc(N(CCCl)CCCl)cc2)s1
Return: 91.2

Enquiry: Give me measured growth, please, for this compound: COC1=CC(=O)OC(CCc2ccc3c(c2)OCO3)C1 (stereo not given)
Return: 122

Enquiry: Identify measured growth corresponding to CCCCn1cc(C(=O)/C(C#N)=C/c2cc3ccccc3nc2Cl)c2cc(OC)ccc21
Return: 93.9

Enquiry: Report growth for CC(C)CCC[C@@H](C)[C@H]1CC[C@H]2[C@@H]3CC=C4C[C@@H](OC(=O)Cc5ccc(N(CCCl)CCCl)cc5)CC[C@]4(C)[C@H]3CC[C@]12C
Return: 106

* * *

tested on: HL-60(TB) leukemia; assay: NCI-60 one-dose screen, 48 h; conditions: 10 µM unless noted
This is part of a sample that, as a whole, favours compounds with a hit. Of some 83,000 tested, about 20% had one in any assay. Calls of active or inactive are those of the source. The calls were made as follows: active = growth percent below 10; inactive = the rest.
# valid calls are true for active, false for inactive; nothing else

Observe how each entry below is paired with its result.
compound=Cc1ccncc1C(N)=O labelvalue=true
compound="C=C1CCC2C3(C)COC(c4c(OC)cccc4OC)OC3CCC2(C)C1C/C=C1/C(=O)OCC1O (stereo unspecified)" labelvalue=false
compound=COc1cc(C(=O)NC(=S)Nc2ccc3ccccc3c2)cc(OC)c1OC labelvalue=false

Enquiry: Given C[C@]1(CO)C[C@@H](O)C[C@]2(C)[C@@H]1CC[C@@]13C[C@@H]4[C@@H](C[C@H]12)[C@]4(C)C3 , state the outcome it received in this test.
Return: false

Enquiry: Which result was noted for this compound in the test: CN(Cc1cnc2nc(N)nc(N)c2n1)c1ccc(C(=O)N[C@@H](CCc2nn[nH]n2)c2nn[nH]n2)cc1
Return: false

Enquiry: Called result for CCOc1ccccc1NC(=O)c1cc2ccccc2cc1O
Return: false
